Assay: wn = mass fraction of the nth substance listed
Details: 323.15 K; 101 kPa; Liquid; Vibrating tube method; w1 = 0.2
readoutKind: mass density (kg/m3)

CC(O)CN(CC(C)O)CC(C)O (centres undefined) [triisopropanolamine] + O
999.698
CC(O)CNCC(C)O (centres undefined) [N-(2-hydroxypropyl)-2-hydroxy-1-propanamine] + O
999.106
CC(O)CN (centres undefined) [1-amino-2-propanol] + O
989.338
OCCNCCO [diethanolamine] + O
1010.35

====

Assay: wn = mass fraction of the nth substance listed
Settings: 303.15 K; 101 kPa; Liquid; Concentric cylinders viscometry; w1 = 0.2
readoutKind: viscosity (mPa·s)

CC(O)CN (centres undefined) [1-amino-2-propanol] + O
1.678
CC(O)CNCC(C)O (centres undefined) [N-(2-hydroxypropyl)-2-hydroxy-1-propanamine] + O
1.952
CC(O)CN(CC(C)O)CC(C)O (centres undefined) [triisopropanolamine] + O
1.859
OCCNCCO [diethanolamine] + O
1.649

====

Experiment: refractive index (Na D-line) (dimensionless); wn = mass fraction of the nth substance listed
Conditions: 343.15 K; 101 kPa; Liquid; Standard Abbe refractometry; w1 = 0.25
readoutKind: refractive index

CC(O)CNCC(C)O (centres undefined) [N-(2-hydroxypropyl)-2-hydroxy-1-propanamine] + O
1.35922
CC(O)CN(CC(C)O)CC(C)O (centres undefined) [triisopropanolamine] + O
1.36012
OCCNCCO [diethanolamine] + O
1.3614
CC(O)CN (centres undefined) [1-amino-2-propanol] + O
1.35614

====

Assay: wn = mass fraction of the nth substance listed
Details: 343.15 K; 101 kPa; Liquid; Concentric cylinders viscometry; w1 = 0.25
readoutKind: viscosity (mPa·s)

CC(O)CN (centres undefined) [1-amino-2-propanol] + O
0.8266
CC(O)CNCC(C)O (centres undefined) [N-(2-hydroxypropyl)-2-hydroxy-1-propanamine] + O
0.9579
OCCNCCO [diethanolamine] + O
0.8922
CC(O)CN(CC(C)O)CC(C)O (centres undefined) [triisopropanolamine] + O
0.9113

====

Experiment: wn = mass fraction of the nth substance listed
Conditions: 308.15 K; 101 kPa; Liquid; Concentric cylinders viscometry; w1 = 0.2
readoutKind: viscosity (mPa·s)

CC(O)CN (centres undefined) [1-amino-2-propanol] + O
1.468
OCCNCCO [diethanolamine] + O
1.455
CC(O)CN(CC(C)O)CC(C)O (centres undefined) [triisopropanolamine] + O
1.612
CC(O)CNCC(C)O (centres undefined) [N-(2-hydroxypropyl)-2-hydroxy-1-propanamine] + O
1.695

====

Assay: wn = mass fraction of the nth substance listed
Settings: 303.15 K; 101 kPa; Liquid; Concentric cylinders viscometry; w1 = 0.05
readoutKind: viscosity (mPa·s)

CC(O)CNCC(C)O (centres undefined) [N-(2-hydroxypropyl)-2-hydroxy-1-propanamine] + O
0.9968
CC(O)CN (centres undefined) [1-amino-2-propanol] + O
0.9733
CC(O)CN(CC(C)O)CC(C)O (centres undefined) [triisopropanolamine] + O
0.9842
OCCNCCO [diethanolamine] + O
0.9498

====

Assay: refractive index (Na D-line) (dimensionless); wn = mass fraction of the nth substance listed
Settings: 303.15 K; 101 kPa; Liquid; Standard Abbe refractometry; w1 = 0.25
readoutKind: refractive index

CC(O)CN(CC(C)O)CC(C)O (centres undefined) [triisopropanolamine] + O
1.36979
OCCNCCO [diethanolamine] + O
1.36935
CC(O)CNCC(C)O (centres undefined) [N-(2-hydroxypropyl)-2-hydroxy-1-propanamine] + O
1.36822
CC(O)CN (centres undefined) [1-amino-2-propanol] + O
1.3656

====

Assay: wn = mass fraction of the nth substance listed
Settings: 298.15 K; 101 kPa; Liquid; Concentric cylinders viscometry; w1 = 0.2
readoutKind: viscosity (mPa·s)

CC(O)CN(CC(C)O)CC(C)O (centres undefined) [triisopropanolamine] + O
2.173
CC(O)CNCC(C)O (centres undefined) [N-(2-hydroxypropyl)-2-hydroxy-1-propanamine] + O
2.288
OCCNCCO [diethanolamine] + O
1.893
CC(O)CN (centres undefined) [1-amino-2-propanol] + O
1.944

====

Test: refractive index (Na D-line) (dimensionless); wn = mass fraction of the nth substance listed
Conditions: 308.15 K; 101 kPa; Liquid; Standard Abbe refractometry; w1 = 0.15
readoutKind: refractive index

CC(O)CNCC(C)O (centres undefined) [N-(2-hydroxypropyl)-2-hydroxy-1-propanamine] + O
1.35332
CC(O)CN(CC(C)O)CC(C)O (centres undefined) [triisopropanolamine] + O
1.35393
OCCNCCO [diethanolamine] + O
1.35288
CC(O)CN (centres undefined) [1-amino-2-propanol] + O
1.35092

====

Test: wn = mass fraction of the nth substance listed
Conditions: 313.15 K; 101 kPa; Liquid; Concentric cylinders viscometry; w1 = 0.1
readoutKind: viscosity (mPa·s)

CC(O)CN(CC(C)O)CC(C)O (centres undefined) [triisopropanolamine] + O
0.9574
OCCNCCO [diethanolamine] + O
0.9142
CC(O)CNCC(C)O (centres undefined) [N-(2-hydroxypropyl)-2-hydroxy-1-propanamine] + O
0.9814
CC(O)CN (centres undefined) [1-amino-2-propanol] + O
0.9275

====

Test: wn = mass fraction of the nth substance listed
Conditions: 328.15 K; 101 kPa; Liquid; Vibrating tube method; w1 = 0.15
readoutKind: mass density (kg/m3)

OCCNCCO [diethanolamine] + O
1002.36
CC(O)CN (centres undefined) [1-amino-2-propanol] + O
986.564
CC(O)CN(CC(C)O)CC(C)O (centres undefined) [triisopropanolamine] + O
994.263
CC(O)CNCC(C)O (centres undefined) [N-(2-hydroxypropyl)-2-hydroxy-1-propanamine] + O
993.882

====

Test: refractive index (Na D-line) (dimensionless); wn = mass fraction of the nth substance listed
Conditions: 298.15 K; 101 kPa; Liquid; Standard Abbe refractometry; w1 = 0.05
readoutKind: refractive index

CC(O)CNCC(C)O (centres undefined) [N-(2-hydroxypropyl)-2-hydroxy-1-propanamine] + O
1.34052
CC(O)CN(CC(C)O)CC(C)O (centres undefined) [triisopropanolamine] + O
1.34069
CC(O)CN (centres undefined) [1-amino-2-propanol] + O
1.33891
OCCNCCO [diethanolamine] + O
1.3394

====

Assay: wn = mass fraction of the nth substance listed
Conditions: 313.15 K; 101 kPa; Liquid; Vibrating tube method; w1 = 0.25
readoutKind: mass density (kg/m3)

CC(O)CNCC(C)O (centres undefined) [N-(2-hydroxypropyl)-2-hydroxy-1-propanamine] + O
1007.23
OCCNCCO [diethanolamine] + O
1020.89
CC(O)CN (centres undefined) [1-amino-2-propanol] + O
995.218
CC(O)CN(CC(C)O)CC(C)O (centres undefined) [triisopropanolamine] + O
1007.64

====

Assay: wn = mass fraction of the nth substance listed
Details: 318.15 K; 101 kPa; Liquid; Vibrating tube method; w1 = 0.25
readoutKind: mass density (kg/m3)

CC(O)CN (centres undefined) [1-amino-2-propanol] + O
992.514
OCCNCCO [diethanolamine] + O
1018.51
CC(O)CN(CC(C)O)CC(C)O (centres undefined) [triisopropanolamine] + O
1004.88
CC(O)CNCC(C)O (centres undefined) [N-(2-hydroxypropyl)-2-hydroxy-1-propanamine] + O
1004.62

====

Assay: refractive index (Na D-line) (dimensionless); wn = mass fraction of the nth substance listed
Conditions: 303.15 K; 101 kPa; Liquid; Standard Abbe refractometry; w1 = 0.1
readoutKind: refractive index

CC(O)CN(CC(C)O)CC(C)O (centres undefined) [triisopropanolamine] + O
1.34737
CC(O)CNCC(C)O (centres undefined) [N-(2-hydroxypropyl)-2-hydroxy-1-propanamine] + O
1.34693
CC(O)CN (centres undefined) [1-amino-2-propanol] + O
1.34506
OCCNCCO [diethanolamine] + O
1.34585

====

Test: wn = mass fraction of the nth substance listed
Conditions: 338.15 K; 101 kPa; Liquid; Vibrating tube method; w1 = 0.25
readoutKind: mass density (kg/m3)

CC(O)CN(CC(C)O)CC(C)O (centres undefined) [triisopropanolamine] + O
992.589
OCCNCCO [diethanolamine] + O
1007.44
CC(O)CN (centres undefined) [1-amino-2-propanol] + O
980.398
CC(O)CNCC(C)O (centres undefined) [N-(2-hydroxypropyl)-2-hydroxy-1-propanamine] + O
992.735

====

Assay: wn = mass fraction of the nth substance listed
Conditions: 308.15 K; 101 kPa; Liquid; Vibrating tube method; w1 = 0.2
readoutKind: mass density (kg/m3)

OCCNCCO [diethanolamine] + O
1017.18
CC(O)CN (centres undefined) [1-amino-2-propanol] + O
996.833
CC(O)CN(CC(C)O)CC(C)O (centres undefined) [triisopropanolamine] + O
1007.37
CC(O)CNCC(C)O (centres undefined) [N-(2-hydroxypropyl)-2-hydroxy-1-propanamine] + O
1006.41
